These data points were gathered from patent US10538555B2.

Biological target: Human PD-L1/PD-1 (Homo sapiens)
Construct: TVMV protease cleavage site (C); made in house; host or cells: HEK293T cells
Sequence (Q9NZQ7 with tags, fused parts or gaps): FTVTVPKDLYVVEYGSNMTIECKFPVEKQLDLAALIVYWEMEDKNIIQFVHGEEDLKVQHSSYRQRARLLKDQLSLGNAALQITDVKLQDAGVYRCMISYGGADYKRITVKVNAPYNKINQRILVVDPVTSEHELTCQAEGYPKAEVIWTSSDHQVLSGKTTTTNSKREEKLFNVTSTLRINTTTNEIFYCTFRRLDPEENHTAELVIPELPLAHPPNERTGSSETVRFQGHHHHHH
Test: HTRF Human PD-L1/PD-1 binding assay (PD-1-Ig/PD-L1-His)
Settings: PD-L1-His 10 nM, PD-1-Ig 20 nM; class symbol; read-out: HTRF Human PD-L1/PD-1 Binding Assay IC50 Range
pIC50: −log10 of the molar value. Where a SMILES comes first, the peptide text is derived from it. Bridges are numbered along the chain shown (N, C = ends). [ ]: non-standard residue; d: D form. ξ: configuration not given here. Phe(4-F) = N[C@@H](Cc1ccc(F)cc1)C(=O)O; NMeF = CN[C@@H](Cc1ccccc1)C(=O)O; NMeNle = CCCC[C@H](NC)C(=O)O; NMeA = CN[C@@H](C)C(=O)O; Orn = NCCC[C@H](N)C(=O)O; ξC = NC(CS)C(=O)O
This listing pairs compounds with measured pIC50.

# compound, pIC50
records = [
    ("CCCC[C@H]1C(=O)N2CCC[C@@H]2C(=O)N[C@@H](CC(=O)O)C(=O)N[C@@H](C(C)C)C(=O)N(C)[C@@H](Cc2ccccc2)C(=O)N[C@@H](CCC(=O)O)C(=O)N2CCC[C@@H]2C(=O)N[C@@H](Cc2c[nH]c3ccccc23)C(=O)N[C@@H](Cc2ccc(O)cc2)C(=O)N[C@@H](CC(C)C)C(=O)N[C@H](C(=O)NCC(N)=O)CSCC(=O)N[C@@H](Cc2ccc(F)cc2)C(=O)N(C)[C@@H](Cc2ccccc2)C(=O)N1C [Example 10107] ({CH2CO}-[Phe(4-F)][NMeF][NMeNle][dP]DV[NMeF]E[dP]WYLCG-NH2; thioether N-13)", "8.00 to 9.00"),
]

Here is the next item to consider.
INPUT: Query (compound): CCCC[C@H]1C(=O)N(C)[C@@H](CCCC)C(=O)N[C@@H](CCCN)C(=O)NC(C(=O)NCC(N)=O)CSCC(=O)N[C@@H](Cc2ccc(O)cc2)C(=O)N(C)[C@@H](C)C(=O)N[C@@H](CC(N)=O)C(=O)N2CCC[C@H]2C(=O)N[C@@H](CC(N)=O)C(=O)N[C@@H](CC(C)C)C(=O)N2CCC[C@H]2C(=O)N[C@@H](Cc2c[nH]c3ccccc23)C(=O)N[C@@H](CO)C(=O)N[C@@H](Cc2c[nH]c3ccccc23)C(=O)N1C (some centres unmarked) [Example 9155] ({CH2CO}-Y[NMeA]NPNLPWSW[NMeNle][NMeNle][Orn][ξC]G-NH2; thioether N-14) ; field requested: pIC50
OUTPUT: 8.00 to 9.00
